Biological target: mPGES-1 in A549 cells (Homo sapiens (Human), UniProt O14684)
Sequence (O14684 whole entry): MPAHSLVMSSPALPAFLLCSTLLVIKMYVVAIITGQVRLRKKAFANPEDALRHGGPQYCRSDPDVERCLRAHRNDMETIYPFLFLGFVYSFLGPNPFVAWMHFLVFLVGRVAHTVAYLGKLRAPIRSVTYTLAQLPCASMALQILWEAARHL
Assay: A549 cell-based assay (PGE2 formation, 50% human serum)
Conditions: IL-1β 5 ng/ml, 10 nM arachidonic acid, 20-24 h, read-out: mPGES-1 inhibitory effect IC50 in the cell assay
ENDPOINT: IC50

Recorded results for 10 molecules are shown here.
>  <MOLECULE>
Cn1c(Nc2c(Cl)ccc(CNC(=O)C(C)(C)C)c2Cl)nc2cc(C(=O)N[C@H]3CC[C@H](C(F)(F)F)CC3)c(N3CCC(C(F)(F)F)CC3)cc21

>  <IC50>
< 1 nM

$$$$
>  <MOLECULE>
CC(C)(C)C(=O)NCc1ccc(Cl)c(Nc2nc3cc(C(=O)N[C@H]4CC[C@H](C(F)(F)F)CC4)c(N4CCC(C(F)(F)F)CC4)cc3n2CC(F)F)c1Cl

>  <IC50>
2 nM

$$$$
>  <MOLECULE>
Cn1c(Nc2c(Cl)ccc(CNC(=O)[C@@](C)(O)C(F)(F)F)c2Cl)nc2cc(C(=O)Nc3ccc(F)c(Cl)c3)c(N3CCC(C(F)(F)F)CC3)cc21

>  <IC50>
1 nM

$$$$
>  <MOLECULE>
Cn1c(Nc2c(Cl)ccc(CNC(=O)C(C)(C)C)c2Cl)nc2cc(C(=O)NCC(F)(F)C(F)(F)F)c(N3CCC(F)(F)C3)cc21

>  <IC50>
2 nM

$$$$
>  <MOLECULE>
Cc1n[nH]c(CN(C)c2cc3c(cc2C(=O)Nc2ccc(OC(F)(F)F)cc2)nc(Nc2c(Cl)ccc(CNC(=O)C(C)(C)F)c2Cl)n3C)n1

>  <IC50>
2.6 nM

$$$$
>  <MOLECULE>
Cn1c(Nc2c(Cl)ccc(CNC(=O)C(C)(C)C)c2Cl)nc2cc(C(=O)N[C@H]3CC[C@@H](C(F)(F)F)CC3)c(N3CCC(C(F)(F)F)CC3)cc21

>  <IC50>
< 1 nM

$$$$
>  <MOLECULE>
CC(NC(=O)c1cc2nc(Nc3c(Cl)ccc(CNC(=O)C(C)(C)C)c3Cl)n(C)c2cc1N1CCC(F)(F)C1)c1cccs1 (stereo not drawn)

>  <IC50>
6.5 nM

$$$$
>  <MOLECULE>
CC(C)(C)C(=O)NCc1ccc(Cl)c(Nc2nc3cc(C(=O)Nc4ccc(OC(F)(F)F)cc4)c(N4CCOCC4)cc3n2CCC(N)=O)c1Cl

>  <IC50>
6.5 nM

$$$$
>  <MOLECULE>
COc1cncc(C(=O)NCc2ccc(Cl)c(Nc3nc4cc(C(=O)N[C@H]5CC[C@H](C(F)(F)F)CC5)c(N5CC6CC6C5)cc4n3C)c2Cl)n1 (stereo partly drawn)

>  <IC50>
41 nM

$$$$
>  <MOLECULE>
Cn1c(Nc2c(Cl)ccc(CNC(=O)c3c(F)cncc3F)c2Cl)nc2cc(C(=O)N[C@H]3CC[C@H](C(F)(F)F)CC3)c(N3CC4CC4C3)cc21 (stereo partly drawn)

>  <IC50>
6 nM

$$$$

Query: Bench note: what IC50 did Cn1c(Nc2c(Cl)ccc(CNC(=O)C(C)(C)C)c2Cl)nc2cc(C(=O)N[C@H]3CC[C@H](C(F)(F)F)CC3)c(N3CCC(F)(F)CC3)cc21 show?
Result: 1 nM

Query: Bench note: what IC50 did Cn1c(Nc2c(Cl)ccc(CNC(=O)C(C)(C)C)c2Cl)nc2cc(C(=O)Nc3cccc(OC(F)(F)F)c3)c(N3CCC(F)(F)C3)cc21 show?
Result: < 1 nM
